Biological target: Orexin/Hypocretin receptor type 1 (Homo sapiens, UniProt O43613)
Sequence (O43613 whole entry): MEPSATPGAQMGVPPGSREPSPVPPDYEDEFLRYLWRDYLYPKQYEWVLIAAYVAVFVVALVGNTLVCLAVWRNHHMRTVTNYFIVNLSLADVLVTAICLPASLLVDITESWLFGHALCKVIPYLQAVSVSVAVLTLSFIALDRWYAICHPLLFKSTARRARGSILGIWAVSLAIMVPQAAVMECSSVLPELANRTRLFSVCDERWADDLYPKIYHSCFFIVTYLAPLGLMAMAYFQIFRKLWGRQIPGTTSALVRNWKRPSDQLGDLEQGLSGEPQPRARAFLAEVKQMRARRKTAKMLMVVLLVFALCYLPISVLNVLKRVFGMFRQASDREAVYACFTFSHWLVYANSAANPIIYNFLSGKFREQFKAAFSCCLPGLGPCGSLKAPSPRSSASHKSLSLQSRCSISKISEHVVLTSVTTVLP
Experiment: Agonist activity at OX1R (unknown origin)
Provide the reported EC50 of each item.
Please respond with the number in nM and leave the unit unwritten.

Q) Which EC50 value is on record for CCCN(C(=O)Cc1cccc(OC)c1)C1CCCc2ccc(NS(=O)(=O)c3cc(-c4cccc(C(=O)N(C)C)c4)ccc3OC)cc21 (centres undefined) ?
A) 3920

Q) Field entry: COc1ccc(-c2cccc(C(=O)N(C)C)c2)cc1S(=O)(=O)Nc1ccc2c(c1)C(N(C)C(=O)Cc1cccc(F)c1)CCC2 (centres undefined)
A) 86.3

Q) Do the same for COc1ccc(-c2cccc(C(=O)N(C)C)c2)cc1S(=O)(=O)Nc1ccc2c(c1)C(N(C)C(=O)Cc1ccccc1)CCC2 (centres undefined) please
A) 112

Q) Now this one: CCCCC(=O)N(C)C1CCCc2ccc(NS(=O)(=O)c3cc(-c4cccc(C(=O)N(C)C)c4)ccc3OC)cc21 (centres undefined)
A) 4180

Q) Again, but for COc1cccc(CC(=O)N(C)[C@@H]2CCCc3ccc(NS(=O)(=O)c4cc(-c5cccc(C(=O)N(C)C)c5)ccc4OC)cc32)c1
A) 13.5

Q) One more molecule: COc1ccc(CC(=O)N(C)C2CCCc3ccc(NS(=O)(=O)c4cc(-c5cccc(C(=O)N(C)C)c5)ccc4OC)cc32)cc1 (centres undefined)
A) 120

Q) Would you mind doing COc1cccc(CC(=O)N(C)[C@H]2CCCc3ccc(NS(=O)(=O)c4cc(-c5cccc(C(=O)N(C)C)c5)ccc4OC)cc32)c1 as well?
A) 1240

Q) Please do the same for COc1cccc(CC(=O)OC2CCCc3ccc(NS(=O)(=O)c4cc(-c5cccc(C(=O)N(C)C)c5)ccc4OC)cc32)c1 (centres undefined) as well.
A) 5780

Q) Here is the next molecule: COc1ccc(-c2cccc(C(=O)N(C)C)c2)cc1S(=O)(=O)Nc1ccc2c(c1)C(N(C)C(=O)CCc1ccccc1)CCC2 (centres undefined)
A) 372

Q) And then COc1ccc(-c2cccc(C(=O)N(C)C)c2)cc1S(=O)(=O)Nc1ccc2c(c1)C(N(C)C(=O)Nc1ccccc1)CCC2 (centres undefined) , what is it?
A) 3250

Q) COc1ccc(CN(C)C2CCc3ccc(NS(=O)(=O)c4cc(-c5cccc(C(=O)N(C)C)c5)ccc4OC)cc32)cc1 (centres undefined) , same question.
A) 287

Q) What about this molecule? COc1cccc(CC(=O)N(C)c2cccc3ccc(NS(=O)(=O)c4cc(-c5cccc(C(=O)N(C)C)c5)ccc4OC)cc23)c1
A) 402

---

Molecular target: Orexin/Hypocretin receptor type 1 (Homo sapiens)
Assay: Agonist activity at OX1R (unknown origin)
What EC50 was measured for each of the following?
Numbers only; they are read as nM.

Q) Can you look up the measured EC50 of COc1cccc(CC(=O)N(C)c2cccc3c2CC(NS(=O)(=O)c2cc(-c4cccc(C(=O)N(C)C)c4)ccc2OC)CC3)c1 (configuration not stated) for me?
A) 5490

Q) Also CCN(C(=O)Cc1cccc(OC)c1)C1CCCc2ccc(NS(=O)(=O)c3cc(-c4cccc(C(=O)N(C)C)c4)ccc3OC)cc21 (configuration not stated) , if possible.
A) 356

Q) And for COc1ccc(-c2cccc(C(=O)N(C)C)c2)cc1S(=O)(=O)Nc1ccc2c(c1)C(N(C)C(=O)Cc1cccc(O)c1)CCC2 (configuration not stated) ?
A) 713

Q) Moving on to the next compound: COc1cccc(CC(=O)N(C)C2CCCc3ccc(NS(=O)(=O)c4cc(-c5cccc(C(=O)N(C)C)c5)ccc4OC)cc32)c1 (racemic)
A) 30.7

Q) Another compound to look at: COc1ccc(-c2cccc(C(=O)N(C)C)c2)cc1S(=O)(=O)Nc1ccc2c(c1)C(N(C)C(=O)Cc1cccnc1)CCC2 (configuration not stated)
A) 1180

---

Target: Orexin receptor type 2 (Homo sapiens, UniProt O43614)
Sequence (O43614 whole entry): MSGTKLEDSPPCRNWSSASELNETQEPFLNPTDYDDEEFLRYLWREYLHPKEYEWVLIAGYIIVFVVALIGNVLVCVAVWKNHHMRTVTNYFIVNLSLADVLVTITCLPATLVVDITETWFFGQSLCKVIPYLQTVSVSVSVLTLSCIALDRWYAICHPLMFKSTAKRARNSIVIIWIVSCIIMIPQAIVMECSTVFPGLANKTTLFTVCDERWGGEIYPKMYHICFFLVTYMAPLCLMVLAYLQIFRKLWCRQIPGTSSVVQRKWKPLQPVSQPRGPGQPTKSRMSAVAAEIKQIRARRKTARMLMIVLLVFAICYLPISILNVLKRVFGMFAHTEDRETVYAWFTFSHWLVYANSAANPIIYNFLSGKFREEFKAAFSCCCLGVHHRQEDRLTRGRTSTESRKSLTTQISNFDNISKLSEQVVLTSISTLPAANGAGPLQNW
Assay: Agonist activity at OX2R (unknown origin)
Experimental Readout: pEC50
Worth noting: pEC50 values are minus log10 of concentrations stated in mol/L.

Q) If you can, please state the reported pEC50 value of COc1cccc(CC(=O)N(C)[C@H]2CCCc3ccc(NS(=O)(=O)c4cc(-c5cccc(C(=O)N(C)C)c5)ccc4OC)cc32)c1 .
A) 8.57

Q) Please do the same for COc1ccc(-c2cccc(C(=O)N(C)C)c2)cc1S(=O)(=O)Nc1ccc2c(c1)C(N(C)C(=O)Cc1cccc(F)c1)CCC2 (configuration not stated) as well.
A) 8.19

Q) Request: CCOc1cccc(CC(=O)N(C)C2CCCc3ccc(NS(=O)(=O)c4cc(-c5cccc(C(=O)N(C)C)c5)ccc4OC)cc32)c1 (configuration not stated)
A) 8.67

Q) Again, but for COc1cccc(CC(=O)N(C)[C@@H]2CCCc3ccc(NS(=O)(=O)c4cc(-c5cccc(C(=O)N(C)C)c5)ccc4OC)cc32)c1
A) 9.24

Q) Another compound: COc1ccc(-c2cccc(C(=O)N(C)C)c2)cc1S(=O)(=O)Nc1ccc2c(c1)C(N(C)C(=O)c1ccccc1)CCC2 (configuration not stated)
A) 6.21

Q) What about COc1ccc(-c2cccc(C(=O)N(C)C)c2)cc1S(=O)(=O)Nc1ccc2c(c1)C(N(C)C(=O)Cc1ccccc1)CCC2 (configuration not stated) ?
A) 7.97

Q) // next record CCCN(C(=O)Cc1cccc(OC)c1)C1CCCc2ccc(NS(=O)(=O)c3cc(-c4cccc(C(=O)N(C)C)c4)ccc3OC)cc21 (configuration not stated)
A) 7.36

---

I'd be grateful if you could share measured Ratio EC50 for these entries.
Species: Homo sapiens
Assay: Selectivity index, ratio of EC50 for agonist activity at OX1R (unknown origin) to EC50 for agonist activity at OX2R (unknown origin)
Keep it simple and answer with nothing but the number.

Q) What does the record list as Ratio EC50 for COc1cccc(CC(=O)N(C)[C@H]2CCCc3ccc(NS(=O)(=O)c4cc(-c5cccc(C(=O)N(C)C)c5)ccc4OC)cc32)c1 ?
A) 461

Q) Moving on to COc1ccc(-c2cccc(C(=O)N(C)C)c2)cc1S(=O)(=O)Nc1ccc2c(c1)C(N(C)C(=O)Cc1cccc(N(C)C)c1)CCC2 (stereo not drawn)
A) 15.9

Q) Now this one: COc1cccc(CC(=O)N(C)C2CCCc3ccc(NS(=O)(=O)c4cc(-c5cccc(C(=O)N(C)C)c5)ccc4OC)cc32)c1 (racemic)
A) 20.3

Q) Also check COc1ccc(-c2cccc(C(=O)N(C)C)c2)cc1S(=O)(=O)Nc1ccc2c(c1)C(N(C)C(=O)Cc1cccnc1)CCC2 (stereo not drawn)
A) 7.83

Q) Consider next the molecule COc1cccc(CC(=O)N(C)c2cccc3ccc(NS(=O)(=O)c4cc(-c5cccc(C(=O)N(C)C)c5)ccc4OC)cc23)c1 in the same way.
A) 1.79

Q) One more molecule: COc1ccc(-c2cccc(C(=O)N(C)C)c2)cc1S(=O)(=O)Nc1ccc2c(c1)C(N(C)C(=O)Cc1cccc(F)c1)CCC2 (stereo not drawn)
A) 13.3

Q) One more molecule: COc1ccccc1CC(=O)N(C)C1CCCc2ccc(NS(=O)(=O)c3cc(-c4cccc(C(=O)N(C)C)c4)ccc3OC)cc21 (stereo not drawn)
A) 25.7

Q) Record: COc1cccc(CC(=O)N(C)[C@@H]2CCCc3ccc(NS(=O)(=O)c4cc(-c5cccc(C(=O)N(C)C)c5)ccc4OC)cc32)c1
A) 23.3

Q) // same read-out, input: COc1ccc(CN(C)C2CCc3ccc(NS(=O)(=O)c4cc(-c5cccc(C(=O)N(C)C)c5)ccc4OC)cc32)cc1 (stereo not drawn)
A) 87.8

Q) And the next one, COc1cccc(CC(=O)OC2CCCc3ccc(NS(=O)(=O)c4cc(-c5cccc(C(=O)N(C)C)c5)ccc4OC)cc32)c1 (stereo not drawn) ?
A) 14

Q) Next up: CCN(C(=O)Cc1cccc(OC)c1)C1CCCc2ccc(NS(=O)(=O)c3cc(-c4cccc(C(=O)N(C)C)c4)ccc3OC)cc21 (stereo not drawn)
A) 18.4

Q) Let us now turn to COc1ccc(-c2cccc(C(=O)N(C)C)c2)cc1S(=O)(=O)Nc1ccc2c(c1)C(N(C)C(=O)CCc1ccccc1)CCC2 (stereo not drawn)
A) 2.95

Q) Check CCCN(C(=O)Cc1cccc(OC)c1)C1CCCc2ccc(NS(=O)(=O)c3cc(-c4cccc(C(=O)N(C)C)c4)ccc3OC)cc21 (stereo not drawn) too.
A) 89.6

Q) Try this molecule next: CCCCC(=O)N(C)C1CCCc2ccc(NS(=O)(=O)c3cc(-c4cccc(C(=O)N(C)C)c4)ccc3OC)cc21 (stereo not drawn)
A) 2.18

Q) Repeat with COc1ccc(-c2cccc(C(=O)N(C)C)c2)cc1S(=O)(=O)Nc1ccc2c(c1)C(N(C)C(=O)Cc1ccccc1)CCC2 (stereo not drawn)
A) 10.5

Q) Queued: CCOc1cccc(CC(=O)N(C)C2CCCc3ccc(NS(=O)(=O)c4cc(-c5cccc(C(=O)N(C)C)c5)ccc4OC)cc32)c1 (stereo not drawn)
A) 25.8

Q) Repeat for the following molecule: COc1ccc(-c2cccc(C(=O)N(C)C)c2)cc1S(=O)(=O)Nc1ccc2c(c1)C(N(C)C(=O)Cc1cccc(O)c1)CCC2 (stereo not drawn)
A) 12.5

Q) Please answer likewise for COc1cccc(CC(=O)NC2CCCc3ccc(NS(=O)(=O)c4cc(-c5cccc(C(=O)N(C)C)c5)ccc4OC)cc32)c1 (stereo not drawn)
A) 8.61
